Target: Glucocorticoid receptor (Homo sapiens) (UniProt P04150)
Sequence (P04150 whole entry, looked up): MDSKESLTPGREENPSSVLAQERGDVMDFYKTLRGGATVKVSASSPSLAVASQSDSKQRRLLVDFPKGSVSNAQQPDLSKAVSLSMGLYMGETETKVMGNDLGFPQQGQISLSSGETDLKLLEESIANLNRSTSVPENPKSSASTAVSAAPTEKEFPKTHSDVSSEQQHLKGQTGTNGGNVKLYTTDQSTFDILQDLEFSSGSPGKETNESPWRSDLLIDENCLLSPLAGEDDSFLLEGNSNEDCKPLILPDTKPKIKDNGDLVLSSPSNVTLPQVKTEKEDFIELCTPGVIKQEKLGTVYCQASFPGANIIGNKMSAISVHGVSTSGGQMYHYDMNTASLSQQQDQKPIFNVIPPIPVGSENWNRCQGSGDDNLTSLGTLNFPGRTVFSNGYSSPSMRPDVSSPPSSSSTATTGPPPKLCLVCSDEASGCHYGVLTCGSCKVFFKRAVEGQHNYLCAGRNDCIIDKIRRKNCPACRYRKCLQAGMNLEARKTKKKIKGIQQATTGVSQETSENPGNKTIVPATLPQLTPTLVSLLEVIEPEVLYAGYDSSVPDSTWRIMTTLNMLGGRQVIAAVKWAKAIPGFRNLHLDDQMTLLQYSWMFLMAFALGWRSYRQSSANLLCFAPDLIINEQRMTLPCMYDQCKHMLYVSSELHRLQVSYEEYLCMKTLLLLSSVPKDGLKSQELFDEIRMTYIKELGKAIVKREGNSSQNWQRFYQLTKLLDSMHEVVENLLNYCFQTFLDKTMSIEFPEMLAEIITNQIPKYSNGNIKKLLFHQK
Assay: qHTS assay to identify small molecule antagonists of the glucocorticoid receptor (GR) signaling pathway (AID 720692)
Conditions: GR-bla HeLa, beta-lactamase FRET ratio, dexamethasone-stimulated, 18 h; series mostly up to 58.5 µM
Inconclusive results are not listed. The source made the active and inactive calls. Calls come from the whole dose curve; as a rule, active = well fitted inhibition curve with a large enough effect in the signal ratio in the repeat runs (not every such curve was filed as active); inconclusive = weak or mixed curves, or effect the other way; inactive = no such curve, though single readings can be large or run the other way; the % refers to the signal ratio.
property: outcome

See these solved cases before continuing.
Cc1ccc(C(C)c2ccc(C)c(C)c2)cc1C    inactive
O=c1[nH]cnc2ccccc12    inactive
Cc1occc1S    inactive
CCCCCCCCCCCCCCCCCBr    inactive
O=C(CCN1CCN2CCCC2C1)N1c2ccccc2Sc2ccc(Cl)cc21 (centres undefined)    inactive
CC(C)(C)C1CCCCC1O (centres undefined)    inactive

**Query** Report measured outcome; entry is C=CC(=O)OCCOC(=O)CCC(=O)O
**Result** inactive

**Query** Report measured outcome; entry is CCCCCCCCCCCCCCC1CO1 (centres undefined)
**Result** inactive

**Query** Report measured outcome; entry is CC(=O)c1ccc2c(c1)[C@H](NC(=O)c1ccc(F)cc1)[C@@H](O)C(C)(C)O2
**Result** inactive
